- Method: Inhibition of Wistar rat kidney aldose reductase 1
IC50 listing for selected compounds.
Express your answer in µM, writing the number without its unit.

Below are worked cases with known answers.
Smiles notation | Assay result
O=C([O-])Cc1ccc2[nH]c3c(c2c1)CN(CCc1ccccc1)CC3.[K+] | 603
O=C([O-])Cc1ccc2[nH]c3c(c2c1)CN(Cc1ccccc1)CC3.[K+] | 328
CN1CCc2[nH]c3ccc(CC(=O)[O-])cc3c2C1.[K+] | 3080

# next compound below
Could you share which IC50 value was measured for CCCC(CCC)C(=O)O ?
56.1

* * *

- Method: Lipophilicity in 1-octanol/phosphate buffer at pH 7.4 assessed as distribution ratio by shake flask method
- Format: physicochemical
- Condition label: octanol/water
// label = Condition met if D is not less than 0.5, otherwise Condition not met

Example entries and their recorded answers appear below.
Molecule | Group
Cc1ccc2[nH]c3c(c2c1)CN(C)CC3 [DEHYDROSTOBADINE] | Condition met
O=C([O-])Cc1ccc2[nH]c3c(c2c1)CN(Cc1ccccc1)CC3.[K+] | Condition not met
CN1CCc2[nH]c3ccc(CC(=O)[O-])cc3c2C1.[K+] | Condition not met

Is D at least 0.5? Consider CN1CC[C@@H]2Nc3ccc(CC(=O)[O-])cc3[C@@H]2C1.[K+] (racemic)
Condition not met

And then O=C([O-])Cc1ccc2c(c1)[C@@H]1CN(Cc3ccccc3)CC[C@@H]1N2.[Na+] (racemic) , what is it?
Condition not met

Quick one: Cc1ccc2c(c1)[C@H]1CN(C)CC[C@H]1N2
Condition met

* * *

IC50 tested on Aldo-keto reductase family 1 member B1 (Rattus norvegicus, UniProt P07943): recorded values
Number only, in µM; omit the unit.

# IC50 lookup, item CN1CC[C@@H]2Nc3ccc(CC(=O)[O-])cc3[C@@H]2C1.[K+] (racemic)
381

* * *

- Method: Dissociation constant, acidic pKa of compound
- Assay type: physicochemical
Parameter: pKa
API note: the answer field is a bare number with no unit suffix.

// pKa lookup, key: O=C([O-])Cc1ccc2[nH]c3c(c2c1)CN(Cc1ccccc1)CC3.[K+]
4.34

* * *

- Target of assay: Aldo-keto reductase family 1 member B1 (Rattus norvegicus)
- Method: Inhibition of Wistar rat lens aldose reductase 2 using D,L-glyceraldehyde as substrate
Ki for assorted compounds
Report the figure in µM without appending any unit label.

Smiles notation | Ki [µM]
O=C([O-])Cc1ccc2[nH]c3c(c2c1)CN(CCc1ccccc1)CC3.[K+] | 17.7

--- query ---
What measured Ki goes with O=C([O-])Cc1ccc2[nH]c3c(c2c1)CN(Cc1ccccc1)CC3.[K+] ?
17.9

* * *

Reported IC50 for target or system Aldo-keto reductase family 1 member B1 (Rattus norvegicus, UniProt P07943), by entry.
Provide only the numeric value, understood in µM.

Recorded results for 2 compounds are shown here.
Compound | IC50 / µM
O=C([O-])Cc1ccc2c(c1)[C@@H]1CN(Cc3ccccc3)CC[C@@H]1N2.[Na+] (racemic) | 266
O=C([O-])Cc1ccc2[nH]c3c(c2c1)CN(CCc1ccccc1)CC3.[K+] | 16.7

Note: attention shifts to another entry.
Give its IC50 value. Item: O=C([O-])Cc1ccc2[nH]c3c(c2c1)CN(Cc1ccccc1)CC3.[K+]
18.2

The origin of these recorded values is ChEMBL document CHEMBL1157200.
